- EXPERIMENTAL DETAILS: Toxicity liver stage against HepG2, at 10uM
- Type: cell-based
- Design: test concentration 10 uM, cell line HepG2-A16-CD81EGFP
- PARTICULARS: human, HepG2-A16-CD81EGFP cells; read-out: INHIBITION
Quick reference for cytotoxicity at 10 µM among some compounds
State the answer as a number, implicitly in %.

Answered cases to consult:
[
  {
    "COMPOUND": "COCCn1cnc2ccc(NC(=O)c3c(C)noc3C)cc2c1=O",
    "VALUE UNIT": "%",
    "READOUT NUMBER": 4.13
  },
  {
    "COMPOUND": "Nc1no[n+]([O-])c1C(=O)NCc1cccnc1",
    "VALUE UNIT": "%",
    "READOUT NUMBER": 5.93
  },
  {
    "COMPOUND": "Cc1nc(C2CCCN(C(=O)c3cc(C(C)(C)C)on3)C2)no1 (centres undefined)",
    "VALUE UNIT": "%",
    "READOUT NUMBER": -11.9
  }
]

Which cytotoxicity at 10 µM is listed for C[C@@H]1C[C@H]2CN(C(=O)C3=CCCC3)C[C@H]2O1 ?
0.199

Which cytotoxicity at 10 µM is listed for CS(=O)(=O)c1cncnc1C1CCCN(C(=O)Nc2ccccc2F)C1 (centres undefined) ?
-0.675

Which cytotoxicity at 10 µM is listed for CSCC(C)(O)CNC(=O)Nc1cc(C)cc(C)c1 (centres undefined) ?
-3.24

Which cytotoxicity at 10 µM is listed for Cc1nn(C)cc1C(=O)N1CCCn2nc(CN3CC[C@H](F)C3)cc2C1 ?
-7.88

Which cytotoxicity at 10 µM is listed for N#Cc1cccc(N2CCCC3(CN(C(=O)NC4CC4)CCO3)C2)c1 (centres undefined) ?
12.1

Which cytotoxicity at 10 µM is listed for COCCCNC(=O)c1ccn(-c2ccc3ccccn23)n1 ?
-0.987

Which cytotoxicity at 10 µM is listed for CC(C)(C)CC(NC(=O)c1nc(=O)[nH][nH]1)c1ccc(F)cc1 (centres undefined) ?
-2.42

Which cytotoxicity at 10 µM is listed for O=C(CCN1CCOCC1)NC(Cc1ccsc1)c1nccs1 (centres undefined) ?
3.35

Which cytotoxicity at 10 µM is listed for CCOCC(=O)NCCc1ccc(I)s1 ?
-4.76
